Origin of measurements: paper PMC9994261

# protocol-notes: in vitro
# Format: in vitro ADME
# stated-conditions: human, Caco-2; read-out: Permeability in Caco2 cells (Papp)

[
  {
    "compound": "CO/N=C1\\C[C@@H](C)O[C@@H](O[C@@H]2[C@@H](C)[C@H](O[C@H]3C[C@@](C)(O)[C@@H](O)[C@H](C)O3)[C@@H](C)C(=O)O[C@H]([C@@H](C)CO[C@@H]3O[C@H](C)[C@@H](O)[C@@H](OC)[C@H]3OC)[C@H](C)[C@@H](OC(=O)CC(C)C)[C@@H](C)C(=O)[C@@](C)(OC(=O)NCc3ccccc3)C[C@@H]2C)[C@@H]1O [SEQ-416]",
    "Papp": "10.4 ×10⁻⁶ cm/s"
  },
  {
    "compound": "COC1C(OCC(C)C2OC(=O)C(C)C(OC3CC(C)(O)C(O)C(C)O3)C(C)C(OC3OC(C)CC(=O)C3O)C(C)CC(C)(O)C(=O)C(C)C(OC(=O)CC(C)C)C2C)OC(C)C(O)C1OC (stereo not shown) [SEQ-503]",
    "Papp": "0.07 ×10⁻⁶ cm/s"
  },
  {
    "compound": "CON=C1CC(C)OC(OC2C(C)CC(C)(OC(=O)NC(C)(C)CNS(=O)(=O)c3ccccc3)C(=O)C(C)C(OC(=O)CC(C)C)C(C)C(C(C)COC3OC(C)C(O)C(OC)C3OC)OC(=O)C(C)C(OC3CC(C)N(C)CC(C)O3)C2C)C1O (stereo not shown) [SEQ-9]",
    "Papp": "1.5 ×10⁻⁶ cm/s"
  },
  {
    "compound": "CON=C1C[C@@H](C)O[C@@H](O[C@@H]2[C@@H](C)[C@H](O[C@H]3C[C@@H](C)N(C)C[C@H](C)O3)[C@@H](C)C(=O)O[C@H](C(C)CO[C@@H]3O[C@H](C)[C@@H](O)[C@@H](OC)[C@H]3OC)[C@H](C)[C@@H](OC(=O)CC(C)C)[C@@H](C)C(=O)[C@@](C)(OC(=O)NCc3ccccc3)C[C@@H]2C)[C@@H]1O (stereo partly shown) [SEQ-372]",
    "Papp": "2.2 ×10⁻⁶ cm/s"
  }
]

---

# protocol-notes: physchem
measure: pKa

[
  {
    "compound": "CON=C1C[C@@H](C)O[C@@H](O[C@@H]2[C@@H](C)[C@H](O[C@H]3C[C@@H](C)N(C)C[C@H](C)O3)[C@@H](C)C(=O)O[C@H](C(C)CO[C@@H]3O[C@H](C)[C@@H](O)[C@@H](OC)[C@H]3OC)[C@H](C)[C@@H](OC(=O)CC(C)C)[C@@H](C)C(=O)[C@@](C)(OC(=O)NCc3ccccc3)C[C@@H]2C)[C@@H]1O (some centres unmarked)",
    "measure": "pKa",
    "value": 8.2
  },
  {
    "compound": "CON=C1CC(C)OC(OC2C(C)CC(C)(OC(=O)NC(C)(C)CNS(=O)(=O)c3ccccc3)C(=O)C(C)C(OC(=O)CC(C)C)C(C)C(C(C)COC3OC(C)C(O)C(OC)C3OC)OC(=O)C(C)C(OC3CC(C)N(C)CC(C)O3)C2C)C1O (centres unmarked)",
    "measure": "pKa",
    "value": 8.3
  }
]

---

# protocol-notes: in vivo
# stated-conditions: male, Swiss, mouse, po, 30 mg/kg

[
  {
    "compound": "CON=C1CC(C)OC(OC2C(C)CC(C)(OC(=O)NC(C)(C)CNS(=O)(=O)c3ccccc3)C(=O)C(C)C(OC(=O)CC(C)C)C(C)C(C(C)COC3OC(C)C(O)C(OC)C3OC)OC(=O)C(C)C(OC3CC(C)N(C)CC(C)O3)C2C)C1O (stereo not shown)",
    "Kp": 19
  }
]
